# experimentalProtocol: photoluminescence quantum yield (fraction); solvent given as SMILES
# setupConditions: in CC#N
valueType: photoluminescence quantum yield

- compoundSmiles: "CCOc1cc2c(cc1/C=C/C1=CC(=C(C#N)C#N)CC(C)(C)C1)c1ccccc1n2CC"
  testValue: 0.018
- compoundSmiles: "CC1(C)CCc2c(c3ccccc3c3nc4c5c(c6ccccc6c4nc23)OC(C)(C)CC5)O1"
  testValue: 0.61
- compoundSmiles: "COc1cc(/C=C2/SC(=O)NC2=O)cc(OC)c1O"
  testValue: 0.02
- compoundSmiles: "C(=C\\c1cc[n+](Cc2ccccc2)cc1)/c1cc[n+](Cc2ccccc2)cc1"
  testValue: 0.0006
- compoundSmiles: "COC(=O)c1nc2c(N(C)C)nc(N(C)C)nc2n1Cc1ccccc1"
  testValue: 0.86
- compoundSmiles: "CN(C)c1ccc(C2=Nc3scc(-c4ccc(N(C)C)cc4)[n+]3[B-](F)(F)O2)cc1"
  testValue: 0
- compoundSmiles: "CCCCN1c2ccccc2Sc2cc(/C=C/C3=Nc4ccc5ccccc5c4C3(C)C)ccc21"
  testValue: 0.05
- compoundSmiles: "F[B-]1(F)n2c(c3cccc4cccc2c43)=Nc2sc3ccccc3[n+]21"
  testValue: 0.97
- compoundSmiles: "CC(=O)c1ccc2ccc3cccc4ccc1c2c34"
  testValue: 0.002
- compoundSmiles: "O=C1NC(=O)c2c1c1c3ccccc3[nH]c1c1[nH]c3ccccc3c21"
  testValue: 0.33
